# runDescription: Partition coefficient (logP)
# Type: physicochemical
# conditionDescription: octanol/water
endpointName: logP
API doc: respond with a numeric literal and nothing else, no unit.

// known answers, use as guide
Record request: logP value, item `CC[C@H]1C(=O)N(CCN(C)C)c2cccc(C(F)(F)F)c2C[C@H]1c1ccc(OC)cc1`
4.3

Query (compound): `COc1ccc([C@@H]2Cc3cc(C(F)(F)F)ccc3N(CCN(C)C)C(=O)[C@@H]2NC(C)=O)cc1` ; field requested: logP
1.6

If you can, please state the reported logP value of `COc1ccc([C@@H]2Cc3ccccc3N(CCN(C)C)C(=O)[C@@H]2OC(C)=O)cc1` .
1.2

Next:
Can you look up the measured logP of `COc1ccc([C@@H]2Cc3cc(C(F)(F)F)ccc3N(CCN(C)C)C(=O)[C@@H]2SC(C)=O)cc1` for me?
3.4

# input compound: `COc1ccc([C@@H]2Cc3cc(OC)ccc3N(CCN(C)C)C(=O)[C@@H]2OC(C)=O)cc1` ; wanted: its logP
1.2

Fill in: logP of `COc1ccc([C@@H]2Cc3cc(Oc4ccccc4)ccc3N(CCN(C)C)C(=O)[C@@H]2OC(C)=O)cc1` is ___
3.1

Bench note: what logP did `C=CC[C@H]1C(=O)N(CCN(C)C)c2ccccc2C[C@H]1c1ccc(OC)cc1` show?
3.3
